Biological target: T1, human GIP receptor (human, UniProt P48546 22-466)
T1 construct: whole, on cells; also called hGIPR; human glucose-dependent insulinotropic polypeptide receptor
T1 sequence (looked up): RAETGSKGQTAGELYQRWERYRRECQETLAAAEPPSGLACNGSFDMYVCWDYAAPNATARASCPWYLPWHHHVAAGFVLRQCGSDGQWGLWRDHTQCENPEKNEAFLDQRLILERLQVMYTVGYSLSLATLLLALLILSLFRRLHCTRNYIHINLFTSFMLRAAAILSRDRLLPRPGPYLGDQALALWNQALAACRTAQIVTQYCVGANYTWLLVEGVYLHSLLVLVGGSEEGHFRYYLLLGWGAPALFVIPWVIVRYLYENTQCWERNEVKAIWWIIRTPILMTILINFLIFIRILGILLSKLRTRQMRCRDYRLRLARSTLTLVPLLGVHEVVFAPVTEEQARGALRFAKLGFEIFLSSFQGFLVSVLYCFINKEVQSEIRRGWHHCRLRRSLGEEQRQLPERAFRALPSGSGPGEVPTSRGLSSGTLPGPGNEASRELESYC
Assay: SPA competition vs [125I]-GIP, hGIPR membranes
Kindly supply the reported pKi values for the records listed here.
One number for each entry, as −log10 of the molar value.

Below, 2 binders whose answers are already recorded.
YXEGTXTSDYXIXLDXQAQXXFIKXLIKGGPSSGAPPPS (Aib2, αMeF(2F)6, Aib11, αMeL13, Orn16, Aib20, Orn21, K24(Z1), αMeY25, K28(Z1), C-term NH2; Z1=AEEA3-(γ-Glu)-CO-(CH2)12-CO2H) ... 10.60
YXEGTXTSDYXIXLDXIAQXXFIKXLIKGGPSSGAPPPS (Aib2, αMeF(2F)6, Aib11, αMeL13, Orn16, Aib20, Orn21, K24(Z1), αMeY25, K28(Z1), C-term NH2; Z1=AEEA3-(γ-Glu)-(10-(4-carboxyphenoxy)decanoyl)) ... 10.58

Hello, I would appreciate it if you could give pKi for each entry below.
1. YXEGTXTSDXXIXLDXKAQXXFIXXLIEGGPSSGAPPPSK (Aib2, αMeF(2F)6, 4Pal10, Aib11, αMeL13, Orn16, K17(Z1), Aib20, Orn21, D-Glu24, αMeY25, K40(Z1), C-term NH2; Z1=AEEA3-(γ-Glu)-CO-(CH2)10-CH3) [Y-Aib-EGT-αMeF(2F)-TSD-4Pal-Aib-I-αMeL-LD-Orn-K((2-[2-(2-Amino-ethoxy)-ethoxy]-acetyl)3-(γ …]
2. YXEGTXTSDXSIXLDXKAQXEFIXXLIEGGKSSGAPPPS (Aib2, αMeF(2F)6, 4Pal10, αMeL13, Orn16, K17(Z1), Aib20, D-Glu24, αMeY25, K31(Z1), C-term NH2; Z1=AEEA2-(γ-Glu)-CO-(CH2)12-CH3)
3. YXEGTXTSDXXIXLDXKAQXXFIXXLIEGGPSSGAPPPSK (Aib2, αMeF(2F)6, 4Pal10, Aib11, αMeL13, Orn16, K17(Z1), Aib20, Orn21, D-Glu24, αMeY25, K40(Z1), C-term NH2; Z1=AEEA2-(γ-Glu)-CO-(CH2)10-CH3)
4. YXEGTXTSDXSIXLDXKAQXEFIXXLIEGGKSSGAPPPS (Aib2, αMeF(2F)6, 4Pal10, αMeL13, Orn16, K17(Z1), Aib20, D-Glu24, αMeY25, K31(Z1), C-term NH2; Z1=AEEA-(γ-Glu)-CO-(CH2)14-CH3)

Given back:
11.04
10.62
10.76
10.24
